# literature pull: Aldo-keto reductase family 1 member B1 (Homo sapiens) IC50
Give just the numeric value; nM need not be written.

In the examples that follow, each entry is paired with its recorded IC50.
- molecule: "O=C(O)/C=C/c1ccccc1"
  measuredTarget: "Aldo-keto reductase family 1 member B1 (Homo sapiens)"
  recordedMetric: "IC50"
  valueUnits: "nM"
  observed: 460000
- molecule: "O=CC(O)CO (racemic)"
  measuredTarget: "Aldo-keto reductase family 1 member B1 (Homo sapiens)"
  recordedMetric: "IC50"
  valueUnits: "nM"
  observed: 10
- molecule: "O=S(=O)(Cc1ccccc1Cl)c1ccc(O)nn1"
  measuredTarget: "Aldo-keto reductase family 1 member B1 (Homo sapiens)"
  recordedMetric: "IC50"
  valueUnits: "nM"
  observed: 118
- molecule: "COc1cc(CCc2ccc(O)c(O)c2)cc(OC)c1"
  measuredTarget: "Aldo-keto reductase family 1 member B1 (Homo sapiens)"
  recordedMetric: "IC50"
  valueUnits: "nM"
  observed: 39200
- molecule: "CC(C)c1ccc(CCc2cc(O)cc(O)c2)cc1"
  measuredTarget: "Aldo-keto reductase family 1 member B1 (Homo sapiens)"
  recordedMetric: "IC50"
  valueUnits: "nM"
  observed: 513000

Ask: Look up and report measured IC50 for this entry: O=C(O)CN1C(=O)S/C(=C\c2ccc(OCc3ccccc3)cc2)C1=O
Reply: 280

Ask: Identify IC50 associated with the molecule NC(=O)[C@@H]1C[C@]2(NC(=O)NC2=O)c2cc(F)ccc2O1
Reply: 35

Ask: Consider the molecule O=C(O)CN1C(=O)S/C(=C\c2cccc(Oc3ccccc3)c2)C1=O and give its recorded IC50.
Reply: 10700

====

Listed below are compounds with pIC50 for Aldo-keto reductase family 1 member B1 (Homo sapiens, UniProt P15121), each taken from published literature.
Just the number, please; pIC50 means minus log10 of the concentration in mol/L.

Ask: Look up and report measured pIC50 for this entry: COc1ccc2oc(S(=O)(=O)c3ccc(=O)[nH]n3)cc2c1
Reply: 6.64

Ask: Give me measured pIC50, please, for this compound: O=c1ccc(S(=O)(=O)c2c(Cl)cccc2Cl)n[nH]1
Reply: 7.30

Ask: Recall and state the measured pIC50 for O=C1S/C(=C\c2ccc(O)cc2)C(=O)N1CC(=O)C(F)(F)F .
Reply: 5.52

Ask: Assign pIC50 to the following record: O=c1ccc(S(=O)(=O)c2cc3cc(Cl)cc(Cl)c3o2)n[nH]1
Reply: 7.06

Ask: Using the record for Cc1c(S(=O)(=O)c2ccc(O)nn2)oc2ccccc12 , state its measured pIC50.
Reply: 6.85

Ask: Indicate its recorded pIC50; the compound in question is O=C(CN1C(=O)NC2(C1=O)c1ccccc1-c1ccccc12)Nc1ccc(Br)cc1
Reply: 6.03

====

Here, compounds appear alongside IC50 reported for Aldo-keto reductase family 1 member B1 (Homo sapiens, UniProt P15121) in the literature.
Response body: numeric value in nM, unit text excluded.

- compoundSmiles: "O=c1ccc(S(=O)(=O)c2ccccc2F)n[nH]1"
  measuredTarget: "Aldo-keto reductase family 1 member B1 (Homo sapiens, UniProt P15121)"
  observed: 540

Ask: # return recorded IC50 for entry O=c1ccc(S(=O)(=O)Cc2cccc(C(F)(F)F)c2F)n[nH]1
Reply: 44

Ask: Let me know recorded IC50 for Cc1ccc(O)c(/C=C2\C(=O)Nc3ccccc32)c1 , thanks.
Reply: 195000

Ask: Supply recorded IC50 for CC(=O)Oc1cc(OCC(=O)OCc2cccc(OCc3c(-c4ccccc4)no[n+]3[O-])c2)cc2oc(-c3ccccc3)cc(=O)c12 here.
Reply: 1620

Ask: For COc1ccc(NC(=O)CN2C(=O)NC3(CCCCC3)C2=O)cc1 , write its IC50.
Reply: 2760

====

Assay read-out pIC50 on Aldo-keto reductase family 1 member B1 (Homo sapiens, UniProt P15121); records merged from the literature.
In simple prose, pIC50 is minus the logarithm base ten of a concentration in moles per litre.

Below, each entry is followed by its recorded pIC50 result.
- compound: "O=c1ccc(S(=O)(=O)c2cc3ccc(Cl)cc3[nH]2)n[nH]1"
  measuredTarget: "Aldo-keto reductase family 1 member B1 (Homo sapiens, UniProt P15121)"
  observed: 6.19
- compound: "CCOC(=O)C1=C(O)C(=O)N(Cc2ccccc2)C1"
  measuredTarget: "Aldo-keto reductase family 1 member B1 (Homo sapiens, UniProt P15121)"
  observed: 6.59
- compound: "O=c1ccc(S(=O)(=O)c2cc(Cl)ccc2Cl)n[nH]1"
  measuredTarget: "Aldo-keto reductase family 1 member B1 (Homo sapiens, UniProt P15121)"
  observed: 7.14
- compound: "CCOC(=O)C1=C(O)C(=O)N(Cc2ccc(Br)cc2)C1"
  measuredTarget: "Aldo-keto reductase family 1 member B1 (Homo sapiens, UniProt P15121)"
  observed: 6.30
- compound: "COc1ccc(C2CC3(CN(CC(=O)O)C(=O)O3)c3cc(Br)ccc3O2)cc1 (stereo unspecified)"
  measuredTarget: "Aldo-keto reductase family 1 member B1 (Homo sapiens, UniProt P15121)"
  observed: 6.19

Ask: // fetch pIC50; item: O=c1ccc(S(=O)(=O)c2cccc3ccccc23)n[nH]1 ; system: Aldo-keto reductase family 1 member B1 (Homo sapiens, UniProt P15121)
Reply: 6.82

Ask: Please report the measured pIC50 for Cc1ccc(NC(=O)CN2C(=O)NC3(C2=O)c2ccccc2-c2ccccc23)cc1 tested on Aldo-keto reductase family 1 member B1 (Homo sapiens, UniProt P15121).
Reply: 5.21

Ask: Provide pIC50, system Aldo-keto reductase family 1 member B1 (Homo sapiens, UniProt P15121), entry COc1ccc2nc(/N=C3\NC(=O)/C(=C/c4ccc(O)cc4)S3)sc2c1
Reply: 5.89

====

# IC50 against UniProt P15121, merged from multiple literature sources
Respond with the bare value in nM.

Use the examples below as a reference point.
- compound: "CCc1c(S(=O)(=O)c2ccc(O)nn2)oc2ccc(Cl)cc12"
  IC50, nM: 6
- compound: "O=C(O)CN1C(=O)S/C(=C\\c2ccc(Oc3ccccc3)cc2)C1=O"
  IC50, nM: 820
- compound: "Cc1ccccc1CC(=O)Nc1cc(C)c(S(=O)(=O)NCC(=O)O)c(C)c1"
  IC50, nM: 108
- compound: "Cc1ccc2oc(S(=O)(=O)c3ccc(O)nn3)c(C)c2c1"
  IC50, nM: 13
- compound: "CCOC(=O)C1=C(O)C(=O)N(Cc2ccc(Cl)cc2)C1"
  IC50, nM: 310
- compound: "NC(=O)[C@H]1C[C@@]2(NC(=O)NC2=O)c2cc(F)ccc2O1 (mixture of isomers)"
  IC50, nM: 40000
- compound: "O=C(CN1C(=O)S/C(=C\\c2ccc(O)cc2)C1=O)NO"
  IC50, nM: 1790
- compound: "O=C(O)CN1C(=O)S/C(=C/c2cccc([N+](=O)[O-])c2)C1=O"
  IC50, nM: 130

Ask: Give me measured IC50, please, for this compound: O=c1ccc(S(=O)(=O)c2cc3cc(Cl)cc(Cl)c3[nH]2)n[nH]1
Reply: 200

Ask: Using known records, supply IC50 for COC(=O)CN1C(=O)S/C(=C\c2ccc(O)cc2)C1=O
Reply: 6180

Ask: Please look at this compound and report its IC50: O=C(O)Cn1c(=O)n(Cc2ccc(Br)cc2F)c(=O)c2ccc(Cl)cc21
Reply: 44

Ask: Recall and state the measured IC50 for O=C1NC(=O)/C(=C/c2ccc(O)cc2)S1 .
Reply: 8960

Ask: Assign IC50 to the following record: O=S(=O)(c1ccc2ccccc2c1)c1ccc(O)nn1
Reply: 360

Ask: Identify IC50 associated with the compound O=c1ccc(S(=O)(=O)c2ccc(Br)cc2)n[nH]1
Reply: 350

Ask: State its IC50 for this compound: Nc1cccc(/C=C2/SC(=O)NC2=O)c1
Reply: 6140

Ask: Give the reported IC50 for this compound. O=C1NC(=O)/C(=C/c2cccc3ccccc23)S1
Reply: 8950

Ask: Please report the measured IC50 for CCOC(=O)C1=C(O)C(=O)N(Cc2ccc(Cl)c(Cl)c2)C1
Reply: 240

Ask: Specify IC50 for O=S(=O)(Cc1cccc(F)c1F)c1ccc(O)nn1 and stop.
Reply: 257

Ask: Give the value of IC50 reported for the following: CN1C(=O)NC(=O)[C@]12CCOc1ccc(F)cc12
Reply: 100000

Ask: Using the record for O=S(=O)(Cc1cccc(Cl)c1F)c1ccc(O)nn1 , state its measured IC50.
Reply: 54

Ask: Assign IC50 to the following record: O=C(O)/C=C/c1ccc(O)cc1
Reply: 989000

====

# pIC50 against Aldo-keto reductase family 1 member B1 (Homo sapiens, UniProt P15121), merged from multiple literature sources
Lab note — pIC50 values are minus log10 of concentrations in M.

- compound: "O=C(O)Cc1c(Cl)cccc1Cl"
  recordedMetric: "pIC50"
  observed: 5.36
- compound: "CCOC(=O)C1=C(O)C(=O)N([C@H](C)c2ccccc2)C1"
  recordedMetric: "pIC50"
  observed: 6.08
- compound: "CCOC(=O)C1=C(O)C(=O)N(C2c3ccccc3-c3ccccc32)C1"
  recordedMetric: "pIC50"
  observed: 6.52
- compound: "Cc1c(S(=O)(=O)c2ccc(O)nn2)oc2ccc(C(F)(F)F)cc12"
  recordedMetric: "pIC50"
  observed: 8.30
- compound: "COc1ccc(NC(=O)CN2C(=O)NC3(C2=O)c2ccccc2-c2ccccc23)cc1"
  recordedMetric: "pIC50"
  observed: 5.54
- compound: "O=S(=O)(c1cccc(Cl)c1)c1ccc(O)nn1"
  recordedMetric: "pIC50"
  observed: 6.62

Switching to the query record.
Ask: Enter recorded pIC50 with Aldo-keto reductase family 1 member B1 (Homo sapiens, UniProt P15121) for COc1cc(C(=O)O)cc(OC)c1O here.
Reply: 3.06
